target: Human plasma purified Factor Xa (Homo sapiens, UniProt P00742); construct: purchased Molecular Innovations, Inc, Novi Mich., USA; host or cells: human plasma; assay: Factor Xa cleavage kinetics of quenched fluorescence (QF) peptide substrates, progress curve; format: biochemical; details: FIIa kcat/KM divided by FXa kcat/KM; natural sequence QF substrates
Sequence (P00742 41-179 limits assumed): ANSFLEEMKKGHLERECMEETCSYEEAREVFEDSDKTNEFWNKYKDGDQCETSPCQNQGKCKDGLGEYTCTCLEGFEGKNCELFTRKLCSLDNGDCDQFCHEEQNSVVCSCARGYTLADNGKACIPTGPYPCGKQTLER
Sequence (P00742 235-488 limits assumed): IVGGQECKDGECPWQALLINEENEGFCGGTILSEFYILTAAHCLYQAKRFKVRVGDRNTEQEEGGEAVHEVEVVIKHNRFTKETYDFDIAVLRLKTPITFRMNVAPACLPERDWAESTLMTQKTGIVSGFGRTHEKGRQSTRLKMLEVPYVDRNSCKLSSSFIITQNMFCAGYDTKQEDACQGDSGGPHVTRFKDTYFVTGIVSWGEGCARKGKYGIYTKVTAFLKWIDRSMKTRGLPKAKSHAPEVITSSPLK
Where no end group is shown, it is not given here. The star is where a group is joined. Dnp = O=[N+]([O-])c1ccc(*)c([N+](=O)[O-])c1; 2Abz = Nc1ccccc1C(=O)O
RESULT_TYPE: Specificity Ratio (FIIa/FXa)
Answers are plain numbers.

Report Specificity Ratio (FIIa/FXa) for every entry below.
1. Thrombin (2): QF substrate Lys(Dnp)-X10-X1-IVGG-Lys(Abz), X10-X1 = SEYQTFFNPR (K(Dnp)SEYQTFFNPRIVGGK(Abz))
2. PAR1 (3): QF substrate with X6-X1 = ATLDPR, prime side IVGG (KATLDPRIVGGK)
3. FpA_P: QF substrate Lys(Dnp)-X10-X1-IVGG-Lys(Abz), X10-X1 = DFLAEGGGPR; FpA with proline at X2 (K(Dnp)DFLAEGGGPRIVGGK(2Abz))
4. Factor XIII: QF substrate Lys(Dnp)-X10-X1-IVGG-Lys(Abz), X10-X1 = TVELQGVVPR (K(Dnp)TVELQGVVPRIVGGK(Abz))
5. Factor VIII (2): QF substrate Lys(Dnp)-X10-X1-IVGG-Lys(Abz), X10-X1 = YDEDENQSPR (K(Dnp)YDEDENQSPRIVGGK(2Abz))
6. Factor V (2): QF substrate Lys(Dnp)-X10-X1-IVGG-Lys(Abz), X10-X1 = NRLAAALGIR (K(Dnp)NRLAAALGIRIVGGK(2Abz))

Result string:
[0, 4, 6914, 114, 13, 302]

Items follow; give Specificity Ratio (FIIa/FXa) for each.
1. Factor V (3): QF substrate Lys(Dnp)-X10-X1-IVGG-Lys(Abz), X10-X1 = PDNIAAWYLR (K(Dnp)PDNIAAWYLRIVGGK(2Abz))
2. PAR1 (2): QF substrate with X8-X1 = TNATLDPR, prime side IVGG (KTNATLDPRIVGGK)

Result string:
1: 7; 2: 4
